# SYSTEM_UNDER_TEST: 5-hydroxytryptamine receptor 2C (Rattus norvegicus, UniProt P08909)
# Sequence (P08909 whole entry): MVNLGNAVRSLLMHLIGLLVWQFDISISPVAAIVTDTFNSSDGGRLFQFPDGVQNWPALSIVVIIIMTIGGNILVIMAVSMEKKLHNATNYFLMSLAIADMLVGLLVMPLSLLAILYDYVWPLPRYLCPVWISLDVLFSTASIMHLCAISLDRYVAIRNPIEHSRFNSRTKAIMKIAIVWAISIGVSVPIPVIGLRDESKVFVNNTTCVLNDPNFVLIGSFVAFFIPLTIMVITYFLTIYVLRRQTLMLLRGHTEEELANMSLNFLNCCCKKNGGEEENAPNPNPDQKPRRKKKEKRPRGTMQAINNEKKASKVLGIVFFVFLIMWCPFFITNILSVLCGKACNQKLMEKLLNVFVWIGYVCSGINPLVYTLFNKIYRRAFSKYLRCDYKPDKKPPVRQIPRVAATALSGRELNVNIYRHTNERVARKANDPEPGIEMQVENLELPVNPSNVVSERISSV
QUANTITY_KIND: Kd
Returns: string containing the number followed by the unit.

Input line: Give 5-hydroxytryptamine receptor 2C (Rattus norvegicus, UniProt P08909) Kd for NCCc1c[nH]c2ccc(C(N)=O)cc12 [[3H]-5-carboxamidotryptamine]
Output line: 631 nM
